Test: PK in healthy rats, s.c.
Format: in vivo, male Sprague-Dawley rats
Details: male, Sprague-Dawley, rat, in vivo, sc, 50 mg/kg, 50 mg/kg s.c., tlast 1440 min
Measured endpoint: AUC(0-t) (µM·h)
Number in µM·h, nothing else.

Measured AUC(0-t) of COCCOCCO[C@@H]1[C@@H](OP(=O)(O)O)[C@H](OCCOCCOC)[C@@H](OP(=O)(O)O)[C@@H](OP(=O)(O)O)[C@H]1OP(=O)(O)O [(OEG2)2-IP4] : 120

----------
Assay: PK i.v. bolus in healthy and adenine/high-phosphate-diet (uremic) rats
Assay type: in vivo, male Sprague-Dawley rats
Details: male, Sprague-Dawley, rat, plasma, iv, 10 mg/kg, Healthy, i.v., Time 5 min, individual rats; read-out: plasma concentration (Figure 4g)
Measured endpoint: concentration at 5 min (µM)
Number in µM, nothing else.

Measured concentration at 5 min of COCCOCCO[C@@H]1[C@@H](OP(=O)(O)O)[C@H](OCCOCCOC)[C@@H](OP(=O)(O)O)[C@@H](OP(=O)(O)O)[C@H]1OP(=O)(O)O [(OEG2)2-IP4] : 51.8

----------
Tested on: transformation of CPP1 to CPP2 in pooled human serum
Assay: In vitro serum calcification propensity (T50) screening assay
Assay type: biochemical
Conditions: mean of n experiments
Measured endpoint: concentration upon which a T50 of 350 min is reached (c350), mean (µM)
Number in µM, nothing else.

Some solved cases for reference:
Molecule: O=P(O)(O)O[C@@H]1[C@H](OP(=O)(O)O)[C@H](OP(=O)(O)O)[C@@H](O)[C@H](OP(=O)(O)O)[C@H]1OP(=O)(O)O [IP5, myo-Inositol-1,2,3,5,6-pentakisphosphate]
Number: 13.2
--
Molecule: NCCCC(O)(P(=O)(O)O)P(=O)(O)O [Alendronate, alendronate]
Number: 9.9

Now look at this entry.
Measured concentration upon which a T50 of 350 min is reached (c350), mean of COCCOCCOCCOCCOCCOCCOCCOCCOCCOCCOCCOCCO[C@@H]1[C@@H](OP(=O)(O)O)[C@H](OP(=O)(O)O)[C@@H](OP(=O)(O)O)[C@@H](OP(=O)(O)O)[C@H]1OP(=O)(O)O (racemic) : 4.9

----------
Test: PK s.c. in rats with vitamin D and warfarin-induced VC
Assay type: in vivo
Conditions: Sprague-Dawley, rat, plasma, sc, 50 mg/kg, 50 mg/kg s.c., Cardiovascular calcification model
Measured endpoint: CL/F
I'd appreciate it if you included the unit after the number.

Measured CL/F of COCCOCCO[C@@H]1[C@@H](OP(=O)(O)O)[C@H](OCCOCCOC)[C@@H](OP(=O)(O)O)[C@@H](OP(=O)(O)O)[C@H]1OP(=O)(O)O : 7 mL/min/kg

----------
Assay: Urinary excretion after s.c. administration
Type: in vivo, rat
Conditions: rat, urine, subcutaneous, 10 mg/kg, 10 mg/kg s.c., healthy rats, 24 h; read-out: Cumulative recovery from rat urine
Measured endpoint: dose excreted (%)
Number in %, nothing else.

Measured dose excreted of COCCOCCO[C@@H]1[C@@H](OP(=O)(O)O)[C@H](OCCOCCOC)[C@@H](OP(=O)(O)O)[C@@H](OP(=O)(O)O)[C@H]1OP(=O)(O)O [(OEG2)2-IP4] : 34.4
